Biological target: T1, full-length beta-Catenin (Uniprot ID P35222) (Homo sapiens (Human), UniProt P35222 2-781)
T1 construct: The assay text says 'full-length'; also called B-Catenin; bCat
T1 sequence: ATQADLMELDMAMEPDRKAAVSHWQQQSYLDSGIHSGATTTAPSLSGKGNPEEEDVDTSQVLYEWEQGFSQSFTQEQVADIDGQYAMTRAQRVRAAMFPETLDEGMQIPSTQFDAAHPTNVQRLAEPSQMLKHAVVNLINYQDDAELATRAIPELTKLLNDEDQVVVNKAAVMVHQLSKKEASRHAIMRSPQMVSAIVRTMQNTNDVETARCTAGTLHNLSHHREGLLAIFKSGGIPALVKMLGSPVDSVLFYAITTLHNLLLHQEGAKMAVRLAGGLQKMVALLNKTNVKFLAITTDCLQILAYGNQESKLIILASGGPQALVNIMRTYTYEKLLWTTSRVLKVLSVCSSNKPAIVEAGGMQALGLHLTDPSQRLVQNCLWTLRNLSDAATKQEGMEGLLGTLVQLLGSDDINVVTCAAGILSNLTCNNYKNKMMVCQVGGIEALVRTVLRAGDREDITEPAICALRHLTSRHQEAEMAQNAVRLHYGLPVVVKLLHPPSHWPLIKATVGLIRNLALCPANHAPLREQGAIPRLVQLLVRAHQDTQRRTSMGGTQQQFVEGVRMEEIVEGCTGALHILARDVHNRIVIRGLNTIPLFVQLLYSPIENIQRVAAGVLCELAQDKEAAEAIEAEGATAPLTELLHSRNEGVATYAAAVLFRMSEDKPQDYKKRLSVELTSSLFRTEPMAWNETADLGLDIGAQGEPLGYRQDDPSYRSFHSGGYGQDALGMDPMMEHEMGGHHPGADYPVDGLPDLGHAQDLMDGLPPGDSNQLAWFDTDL
Test: AlphaScreen competition vs biotin-TCF4(10-53) on full-length beta-catenin
Starred links: 1 amine or outer side, 2 acyl side, 3 side chain; linkers in the order of their positions; H or OH if unused. Positions of bridges follow the written chain, without caps; N, C: chain ends. Non-standard residues stand in square brackets, D forms with d. Primed or numbered codes have the meaning given here. SeN = (S)-5-(((allyloxy)carbonyl)(methyl)amino)-2-amino-2-methylpentanoic acid, C=CCOC(=O)N(C)CCC[C@](C)(N[*:1])C(=O)[*:2]; Az(3) = 1-((allyloxy)carbonyl)-3-aminoazetidine-3-carboxylic acid, C=CCOC(=O)N1CC(N[*:1])(C(=O)[*:2])C1; R6 = (R)-2-amino-2-methyloct-7-enoic acid, C=CCCCC[C@@](C)(N[*:1])C(=O)[*:2]; S7 = C[C@@](CCCCCC=[*:3])(N[*:1])C(=O)[*:2]
# EC50 annotations
parameter: EC50 (µM)

Ac-FDA[Az(3)]DDAAFV[S7]FWQ-NH2 (staple 4-11, Stapled peptide composition) [I-33]    9.98
Ac-FDA[R6]DDAAFV[SeN]FWQ-NH2 (staple 4-11, Stapled peptide composition) [I-26]    8.11

These entries and their values trace back to patent US20240116985A1.
